# experiment summary: in vitro
# settings: human, hela cells, % viability

| compound | viability at 28.5 h, 10 µM / % |
| --- | --- |
| CC(C)(C)OC(=O)N1CCC(CNCc2c[nH]c(-c3ccccc3)n2)CC1 | 94.3 |
| O=C(O)CCC1NC(=O)N(C2CCCCC2)C1=O (centres unmarked) | 77.3 |
| O=c1[nH]nc(SCc2ccccc2Cl)c(=S)[nH]1 | 117 |
| CCC(=O)NCCCn1c(-c2cccnc2C)cc2cccnc21 | 90.4 |
| OCc1cc(Cl)c(Cl)c(CO)c1O | 95.5 |
| CCn1cc(C(=O)N2CCN(Cc3ccco3)C[C@@H]2C(C)C)cn1 | 97.7 |
| CS(=O)(=O)N[C@H]1C[C@H]2C(=O)Nc3cc(Cl)ccc3C(=O)N2C1 | 89 |
| COc1cc(NS(=O)(=O)c2ccc(Nc3nc(-c4sc(N)nc4C)cs3)cc2)nc(OC)n1 | 91.2 |
| O=C(c1nccs1)C1CCN(C(=O)Cc2ccc(F)cc2)CC1 | 104 |
| Cc1ccc2c(N)c(C(=O)Nc3ccc(C#N)cc3)sc2n1 | 91.3 |
| Cc1[nH]c2ccc(CNC(=O)Cn3ccnc3C(C)C)cc2c1C | 87.6 |
| CC1(OCCN2CCOCC2)SC(NC2CC3CCC2C3)=NC1=O (centres unmarked) | 83.8 |
| CC(=O)Nc1cccc(-c2cnc(N)c(N3CCN(CCN(C)C)CC3)n2)c1 | 91.1 |
| N#Cc1c(NC(=O)CSc2nnnn2-c2ccc(C(=O)O)cc2)sc2c1CCCC2 | 87.6 |
| O=c1c2[nH]cc(-c3ccccc3)c2ncn1CCc1ccccc1 | 76.9 |
| O=C(O)c1cccc(-c2cccc(N3CCN(c4ccccn4)CC3)n2)c1 | 92.7 |
| CCOC(=O)C1(Cc2cc(-c3ccc(F)cc3)no2)CCCNC1 (centres unmarked) | 84 |
| CCC1=NC(c2ccccc2Cl)N(O)C1(C)C (centres unmarked) | 97.5 |
| CC(C)n1cc(C(=O)N2CCCC2c2nc3ccccc3[nH]2)cn1 (centres unmarked) | 108 |
| Cc1cc(NS(=O)(=O)c2ccc(NC(=O)CCCOc3ccc(Cl)cc3Cl)cc2)no1 | 103 |

---

Parameter viability at 28.5 h, 10 µM: see the listing below.
# experiment summary: in vitro
# settings: human, hela cells, % viability

| compound | viability at 28.5 h, 10 µM, % |
| --- | --- |
| Nc1cc(NC(=O)c2cccc(C(=O)Nc3ccc(Cl)c(N)c3)c2)ccc1Cl | 94.1 |
| COc1ccccc1OCC(=O)N1CCN(C(=O)c2ccco2)CC1 | 86.8 |
| CN(C)C(=O)c1cccc(S(=O)(=O)NCC2CCCO2)c1 (stereo not drawn) | 93.2 |
| O=C(O)COc1ccccc1/C=N\N1CCN(c2ccccn2)CC1 | 95.9 |
| Fc1ccccc1COc1cccc(CNCCN2CCOCC2)c1 [CBK278148C] | 102 |
| CC1CCCN(c2ccc(NC(=O)c3cccs3)cc2[N+](=O)[O-])C1 (stereo not drawn) | 102 |
| Cc1csc(C(Cc2ccsc2)NCC2=CCCOC2)n1 (stereo not drawn) | 101 |
| O=C(NCc1nnc2ccccn12)c1ccccc1 | 110 |
| O=C(O)Cn1nc(-c2ccccc2)c2ccccc2c1=O | 88 |
| COc1ccc(-c2nnc(SCC(=O)c3ccccc3)o2)cc1 | 100 |
| Cc1nnc(SCc2nnnn2-c2ccccc2)nc1O | 101 |
| O=C(CCC(F)(F)F)NCc1csc(-c2ccccc2)n1 | 91 |
| Cc1ncccc1C(=O)NC(Cc1cccs1)c1nccs1 (stereo not drawn) | 91.4 |
| COc1ccccc1-n1nc(CC(C)C)nc1C(C)NS(C)(=O)=O (stereo not drawn) | 95.6 |
| CCOC(=O)C(C)n1ncc2c3sc(C)cc3n(C)c2c1=O (stereo not drawn) | 85.9 |
| Cc1cc(C(=O)Oc2cccc(NC3=NS(=O)(=O)c4ccccc43)c2)c2ccccc2n1 | 96.5 |
| CN1CCN(S(=O)(=O)c2ccc(C(C)(C)C)cc2)CC1 | 106 |
| Cc1nccn1CC1(O)CCN(Cc2c[nH]c3ccccc23)CC1 | 82.1 |
| O=S(=O)(Nc1nnn[nH]1)c1cccc2nonc12 | 104 |
| CC(C)[C@@H](Cn1c(=O)oc2ccccc21)NC(=O)c1ccco1 | 94.1 |
| NCCNCCNCCN [CBK023985C] | 93.2 |
